test: NCI Yeast Anticancer Drug Screen. Data for the rad18 strain (AID 177)
test context: S. cerevisiae rad18 mutant growth inhibition; at 11.0 µM
The panel holds about 79,000 compounds, 15% with a hit somewhere; the sample as a whole holds those more often. Activity calls are given as the source filed them. No stated cut-off is given here; in the data, active means growth inhibition above about 70%; inactive means the rest.
Classes used: active, inactive

molecule="CC1CC(C)CC(C)C(O)/C(C#N)=C/C=C/CC(C2CCCC2C(=O)O)OC(=O)CC(O)C(C)C1 (stereo unspecified)" class=active
molecule="OC(c1ccc(Br)cc1)C(Cl)(Cl)Cl (stereo unspecified)" class=inactive
molecule="CCCCCCCCCCCCCCCCP(=O)(O)OCC(N)C(=O)O (stereo unspecified)" class=inactive
molecule="C[CH2][Sn]1([CH2]C)[O]C2C(O)OC(CO)C(O)C2[O]1 (stereo unspecified)" class=inactive
molecule=O=C(COc1ccc(Cl)cc1Cl)NO class=inactive
molecule=O=C1C=CC(=O)C1(Br)Br class=active
molecule="C/C(=N\\NC(N)=O)C(CN1CCOCC1)C(c1ccccc1)c1c(O)c2ccccc2oc1=O (stereo unspecified)" class=inactive
molecule=Cc1ccc2c(c1N)C(=O)c1ccccc1C2=O class=inactive
molecule=Nc1ccccc1C(=O)OCCc1ccccc1 class=inactive
molecule="OCC(O)C(O)CO (stereo unspecified) (tested in a mixture with another compound)" class=inactive
molecule=O=c1oc2ccccc2c(O)c1C(c1ccc2c(c1)Cc1ccccc1-2)c1c(O)c2ccccc2oc1=O class=inactive

----------
test: NCI Yeast Anticancer Drug Screen. Data for the cln2 rad14 strain (AID 165);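 further: 0% = growth equal to vehicle treated cultures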
test context: S. cerevisiae cln2 rad14 strain, at 50.0 µM (retest, dose inferred, filed as 5.0), stronger effect = higher value
The panel holds about 79,000 compounds, 15% with a hit somewhere; the sample as a whole holds those more often.
Categorized via growth inhibition: class 1 = under 20%, class 2 = from 20% up to 60%, class 3 = 60% and over

compound=CC(C)=[CH][Sb]([Br])([CH]=C(C)C)([CH]=C(C)C)[c]1ccccc1 class="class 1"
compound="CCC(C)c1cc([N+](=O)[O-])cc([N+](=O)[O-])c1O (configuration not stated)" class="class 2"
compound=CC(=O)Nc1cccc([As+](C)(c2cccc(NC(C)=O)c2)c2cccc(NC(C)=O)c2)c1 class="class 1"
compound="C/C(CCl)=N/NC1=NC(c2ccccc2Cl)P(=O)(NCCCNP2(=O)SC(N/N=C(/C)CCl)=NC2c2ccccc2Cl)S1 (configuration not stated)" class="class 1"
compound="COC(=O)C(Cl)(Br)CCl (configuration not stated)" class="class 3"
compound=N#C[S-].[Nd+3].c1ccc(-c2ccccn2)nc1.c1ccc(-c2ccccn2)nc1.c1ccc(-c2ccccn2)nc1 class="class 3"
compound=O=S(=O)([O-])[O-].[Fe+2].c1ccc(/C(=N\Nc2ccccn2)c2ccccn2)cc1 class="class 1"
compound=Br[Se]c1ccccn1 class="class 3"
compound=CCOc1c(Br)cc(/C=C/[N+](=O)[O-])cc1OC class="class 3"
compound=c1ccc2c(c1)CCc1c-2[nH]c2ccccc12 class="class 3"
compound=ClCCN(CCCl)c1ccc(C2N(Cc3ccc(Cl)cc3)CCCN2Cc2ccc(Cl)cc2)cc1 class="class 2"
compound=CCCCCCCCCCCCCCCc1cccc(O)c1O class="class 1"
compound="C=CCN(CC=C)CC(C(C)=O)C(c1ccccc1)c1c(O)c2ccccc2oc1=O (configuration not stated)" class="class 1"
compound=Nc1nc(N)c(-c2ccc(Cl)c(Cl)c2)c(CCc2ccc(CNC(=O)Nc3ccc(S(=O)(=O)F)cc3)cc2)n1 class="class 2"
compound=CN(CCO)CCO class="class 2"
compound=C1CN([PH+](N2CC2)N2CC2)CCO1.C1CN([PH+](N2CC2)N2CC2)CCO1.[I][Pt][I] class="class 1"
compound=CCOC(=O)/C(=C\c1ccc(C(=O)OC)cc1)[Se]c1ccccc1 class="class 2"
compound=[N-]=[N+]=C1C(Cl)=C(Cl)C(Cl)=C1Cl class="class 3"
compound="COC1=[C]([Hg][Br])C(OC)OC1OC (configuration not stated)" class="class 3"
compound=COc1cc(Br)cc(/C=C(\C)[N+](=O)[O-])c1O class="class 3"
compound=O=c1c[n+](-c2ccc[nH+]c2)[nH]o1.[Cl][Hg][Cl] class="class 3"
compound="CC(C(=O)C1CCCCC1)[n+]1ccccc1 (configuration not stated)" class="class 1"
